This collection of values is drawn from paper PMC2962915.

target: clostridial glutamate dehydrogenase (GDH) ([Clostridium] symbiosum); construct: no tag mentioned; assay: protection against DTNB inactivation; assay type: biochemical; details: 0.1 M potassium phosphate, pH 7.0, 25°C, 200 μM DTNB; competitive with DTNB at coenzyme site; Kd corrected for DTNB; read-out: K dNADH
Sequence (P24295 2-450): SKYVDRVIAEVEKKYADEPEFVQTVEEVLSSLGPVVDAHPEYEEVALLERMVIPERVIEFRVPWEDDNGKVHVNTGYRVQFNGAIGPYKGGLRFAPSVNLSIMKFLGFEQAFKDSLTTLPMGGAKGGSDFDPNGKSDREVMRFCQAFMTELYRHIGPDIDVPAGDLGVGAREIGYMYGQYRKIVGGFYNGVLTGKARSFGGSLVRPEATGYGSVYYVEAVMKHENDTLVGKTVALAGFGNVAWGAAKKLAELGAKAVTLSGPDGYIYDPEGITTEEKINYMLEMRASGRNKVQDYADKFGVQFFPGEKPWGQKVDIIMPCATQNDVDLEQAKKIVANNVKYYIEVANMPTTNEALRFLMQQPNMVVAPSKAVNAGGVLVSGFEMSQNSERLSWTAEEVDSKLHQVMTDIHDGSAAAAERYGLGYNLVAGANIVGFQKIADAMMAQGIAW
experimentalEndpoint: pKd
Answers are plain numbers, as −log10 of the molar value.

[Q] Lookup: pKd / clostridial glutamate dehydrogenase (GDH) ([Clostridium] symbiosum) / NC(=O)C1=CN([C@@H]2O[C@H](COP(=O)(O)OP(=O)(O)OC[C@H]3O[C@@H](n4cnc5c(N)ncnc54)[C@H](O)[C@@H]3O)[C@@H](O)[C@H]2O)C=CC1
[A] 4.62

----------
Biological target: clostridial glutamate dehydrogenase (GDH) ([Clostridium] symbiosum)
Construct: no tag mentioned
Experiment: protection against DTNB inactivation
Assay type: biochemical
Details: 0.1 M potassium phosphate, pH 7.0, 25°C, 200 μM DTNB; competitive with DTNB at coenzyme site; Kd corrected for DTNB; read-out: K dNAD+
From the text: protection against DTNB inactivation on clostridial glutamate dehydrogenase (GDH)
experimentalEndpoint: pKd
One number for each entry, as −log10 of the molar value.

[Q] Lookup: pKd / clostridial glutamate dehydrogenase (GDH) ([Clostridium] symbiosum) / NC(=O)c1ccc[n+]([C@@H]2O[C@H](COP(=O)(O)OP(=O)(O)OC[C@H]3O[C@@H](n4cnc5c(N)ncnc54)[C@H](O)[C@@H]3O)[C@@H](O)[C@H]2O)c1 [NAD^+]
[A] 3.47
